Assay: Cytotoxicity against human HeLa cells after 24 to 48 hrs by MTT assay
Format: cell-based
Details: read-out: TC50 (the source's name)
PROPERTY: CC50

COc1ccc(C2CC(c3cc4ccccc4oc3=O)=NN2C(C)=O)cc1OC (stereo not given) :: > 100 µg/mL
COc1ccc(/C=C/C(=O)c2cc3ccccc3oc2=O)c(OC)c1OC :: 100 µg/mL
COc1cc(/C=C/C(=O)c2cc3ccccc3oc2=O)cc(OC)c1OC :: > 100 µg/mL
COc1cccc(/C=C/C(=O)c2cc3ccccc3oc2=O)c1 :: > 100 µg/mL

Continue with the compound presented below.
## Task Return reported CC50; argument: COc1ccc(C2CC(c3cc4ccccc4oc3=O)=NN2c2ccccc2)cc1OC (stereo not given)
## Result > 100 µg/mL

----------
IC50: recorded values
Tested on: Plasmodium falciparum
Assay: Antimalarial activity against chloroquine-sensitive Plasmodium falciparum 3D7 infected in human erythrocyte after 48 h by SYBR-Green-1 assay
Assay type: functional, organism-based
Conditions: 3D7, 48 h
Field: numeric (µg/mL). Do not append units.

The cases that follow already have their IC50 on record.
COc1ccc(C2CC(c3cc4ccccc4oc3=O)=NN2C(C)=O)cc1OC (stereo unspecified) :: 10
Cc1cc(=O)oc2ccc(C(=O)/C=C/c3ccccc3Cl)c(O)c12 :: 20
COc1ccc(OC)c(/C=C/C(=O)c2cc3ccccc3oc2=O)c1 :: 2.7

## Task Return reported IC50; argument: `COc1cc(/C=C/C(=O)c2cc3ccccc3oc2=O)cc(OC)c1OC`
## Result 3.1

----------
IC50: recorded values
Tested on: Plasmodium falciparum
Assay: Antimalarial activity against chloroquine-sensitive Plasmodium falciparum 3D7 infected in human erythrocyte after 48 h by SYBR-Green-1 assay
Assay type: functional, organism-based
Conditions: 3D7, 48 h
Field: numeric (µg/mL). Do not append units.

COc1ccc(/C=C/C(=O)c2cc3ccccc3oc2=O)c(OC)c1OC :: 3.1
COc1ccc(C2CC(c3cc4ccccc4oc3=O)=NN2c2ccccc2)cc1OC (configuration not stated) :: 10
COc1ccc(/C=C/C(=O)c2cc3ccccc3oc2=O)cc1OC :: 26.7

## Task Return reported IC50; argument: `COc1cccc(/C=C/C(=O)c2cc3ccccc3oc2=O)c1`
## Result 11

----------
System: Plasmodium falciparum
Test: Antimalarial activity against chloroquine-sensitive Plasmodium falciparum 3D7 infected in human erythrocyte after 48 h by SYBR-Green-1 assay
Assay type: functional, organism-based
Conditions: 3D7, 48 h
PROPERTY: IC50

The cases that follow already have their IC50 on record.
COc1ccccc1/C=C/C(=O)c1cc2ccccc2oc1=O :: > 100 µg/mL
COc1ccc(/C=C/C(=O)c2cc3ccccc3oc2=O)cc1 :: > 100 µg/mL

Continue with the compound presented below.
## Task Return reported IC50; argument: `COc1cc(OC)c(OC)cc1/C=C/C(=O)c1cc2ccccc2oc1=O`
## Result > 100 µg/mL
